# measured.target: 5-HT2C receptor (Homo sapiens)
# Construct: alternatively choroid plexus tissue
# Sequence (P28335 33-458): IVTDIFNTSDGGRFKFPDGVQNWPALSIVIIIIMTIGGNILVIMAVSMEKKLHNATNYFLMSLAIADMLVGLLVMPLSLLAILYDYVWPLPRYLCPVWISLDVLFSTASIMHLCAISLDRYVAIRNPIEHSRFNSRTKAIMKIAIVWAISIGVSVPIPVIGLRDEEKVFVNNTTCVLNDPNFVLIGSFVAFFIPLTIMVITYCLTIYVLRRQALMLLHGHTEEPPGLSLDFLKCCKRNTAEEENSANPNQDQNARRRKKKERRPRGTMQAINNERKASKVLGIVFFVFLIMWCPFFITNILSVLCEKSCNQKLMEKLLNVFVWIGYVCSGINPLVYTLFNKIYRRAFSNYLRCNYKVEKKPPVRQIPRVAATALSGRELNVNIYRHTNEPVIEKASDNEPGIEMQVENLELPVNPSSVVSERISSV
# procedure.details: radioligand binding assay for 5-HT2C receptor ([3H]mesulergine)
# assay.context: competitive binding, choroid plexus or recombinant 5-HT2C in CHO-K1, read-out: binding affinity to 5-HT2C serotonin receptor, Ki value
pKi: −log10 of the molar value.
value.type: pKi

pKi reading for "CN(C)CCOCc1cc2c([nH]1)-c1ccccc1Sc1ccccc1-2" : > 7.00

* * *

# measured.target: 5-HT2A receptor (Homo sapiens, UniProt P28223)
# Construct: alternatively human cortex tissue
# Sequence (P28223 whole entry): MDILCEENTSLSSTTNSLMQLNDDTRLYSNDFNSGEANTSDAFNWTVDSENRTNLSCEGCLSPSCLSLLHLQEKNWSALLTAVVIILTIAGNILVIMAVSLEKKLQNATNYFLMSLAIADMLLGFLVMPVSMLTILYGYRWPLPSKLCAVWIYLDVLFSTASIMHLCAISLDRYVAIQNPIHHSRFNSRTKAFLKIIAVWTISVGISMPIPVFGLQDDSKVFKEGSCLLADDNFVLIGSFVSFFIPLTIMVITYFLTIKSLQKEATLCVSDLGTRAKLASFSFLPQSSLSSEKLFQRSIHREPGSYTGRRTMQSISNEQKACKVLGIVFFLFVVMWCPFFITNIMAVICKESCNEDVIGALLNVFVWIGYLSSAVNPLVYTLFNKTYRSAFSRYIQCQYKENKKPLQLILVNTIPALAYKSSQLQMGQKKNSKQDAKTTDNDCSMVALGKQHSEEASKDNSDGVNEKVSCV
# procedure.details: radioligand binding assay for 5-HT2A receptor ([3H]-ketanserin)
# assay.context: competitive binding, human cortex or recombinant 5-HT2A in CHO-K1, read-out: binding affinity to 5-HT2A serotonin receptor expressed as IC50 value
pIC50: −log10 of the molar value.
value.type: pIC50

// pIC50 value for "CN(C)CCOCc1cc2c([nH]1)-c1ccccc1Sc1ccccc1-2" : > 6.70
